- System: Staphylococcus aureus
- experimental details: Minimum inhibitory concentration against methicillin-resistant Staphylococcus aureus (MRSA) A27223
- Assay type: functional
experimental endpoint: MIC (µg/mL)
Give just the numeric value; µg/mL need not be written.

# molecule "Cc1cc(SCC2=C(C(=O)[O-])N3C(=O)[C@@H](NC(=O)CSc4cc(Cl)ccc4Cl)[C@H]3SC2)cc(CCC(=O)O)[n+]1C[C@@H](O)[C@H](O)[C@@H](O)C(O)O" ; its MIC = 8

Just so you know, measured MIC for NC(CCC[n+]1ccc(SCC2=C(C(=O)[O-])N3C(=O)[C@@H](NC(=O)CSc4cc(Cl)ccc4Cl)[C@H]3SC2)cc1)C(=O)O (stereo partly specified) came out at 1

Measured MIC, "Cc1cc(SCC2=C(C(=O)[O-])N3C(=O)[C@@H](NC(=O)CSc4cc(Cl)ccc4Cl)[C@H]3SC2)cc(CCC(=O)O)[n+]1CCO" : 2

The molecule identified as "Cc1cc(SCC2=C(C(=O)[O-])N3C(=O)[C@@H](NC(=O)CSc4cc(Cl)ccc4Cl)[C@H]3SC2)cc(CCc2ccc(Cl)s2)[n+]1CC[C@@H](O)C(=O)O" registered its MIC at 8

For "CCCC[n+]1c(C)cc(SCC2=C(C(=O)[O-])N3C(=O)[C@@H](NC(=O)CSc4cc(Cl)ccc4Cl)[C@H]3SC2)cc1CCC(=O)O" the molecule record lists MIC as 4

Field MIC (entry "C[n+]1ccc(SCC2=C(C(=O)[O-])N3C(=O)[C@@H](NC(=O)CSc4cc(Cl)ccc4Cl)[C@H]3SC2)cc1CCCC(=O)O" ) reads 4

----------
Consider the following molecules and their measured MIC readings.
- System: Staphylococcus aureus
- experimental details: Minimum inhibitory concentration against methicillin-resistant Staphylococcus aureus (MRSA) A27223 in the presence of 50% calf serum.
- Type: functional
Write it as a number; the unit µg/mL goes unstated.

These solved cases illustrate the format of a correct answer.
Cc1cc(SCC2=C(C(=O)O)N3C(=O)[C@@H](NC(=O)CSc4cc(Cl)ccc4Cl)[C@H]3SC2)cc(CCC(=O)O)[n+]1CCCN.O=C(O)C(F)(F)F.O=C([O-])C(F)(F)F
4
Cc1cc(SCC2=C(C(=O)[O-])N3C(=O)[C@@H](NC(=O)CSc4cc(Cl)ccc4Cl)[C@H]3SC2)cc(CCC(=O)O)[n+]1CCc1cccs1
8
NCCC[n+]1ccc(SCC2=C(C(=O)O)N3C(=O)[C@@H](NC(=O)CSc4cc(Cl)ccc4Cl)[C@H]3SC2)cc1CCCC(=O)O.O=C(O)C(F)(F)F.O=C([O-])C(F)(F)F
4
C[n+]1ccc(SCC2=C(C(=O)[O-])N3C(=O)[C@@H](NC(=O)CSc4cc(Cl)ccc4Cl)[C@H]3SC2)cc1CCCC(=O)O
8
Cc1cc(SCC2=C(C(=O)[O-])N3C(=O)[C@@H](NC(=O)CSc4cc(Cl)ccc4Cl)[C@H]3SC2)cc(CCC(=O)O)[n+]1C[C@@H](O)[C@H](O)[C@@H](O)C(O)O
16

Proceeding to the next molecule to report its MIC.
The molecule identified as NC(CCC[n+]1ccc(SCC2=C(C(=O)[O-])N3C(=O)[C@@H](NC(=O)CSc4cc(Cl)ccc4Cl)[C@H]3SC2)cc1)C(=O)O (stereo partly specified) registered its MIC at 4
